assay.summary: Single dose pharmacokinetic study in cynomolgus monkey
Format: in vivo
experimental.conditions: male, cynomolgus monkey, plasma, po, 5 mg/kg, non-human primate, po 5 mg/kg, 2 hr; read-out: Plasma level, Individual animals
measurement.kind: concentration at 2 hr (ng/mL)
Return type: number; implicit unit ng/mL.

## Task Name the recorded concentration at 2 hr for Cc1cc(C(=O)O)nc(N2C[C@H]3C[C@@H](c4ccccc4C(F)(F)F)C[C@H]3C2)n1 .
## Result 32400

* * *

assay.summary: Single dose pharmacokinetic study in cynomolgus monkey
Assay type: in vivo
experimental.conditions: male, cynomolgus monkey, plasma, po; Cyno, 5.0 mg kg^−1 p.o., mean ± SD, n=3; read-out: T1/2, apparent terminal half-life (converted)
measurement.kind: half-life (h)
Report the value in h with no unit label.

## Task Given Cc1cc(C(=O)O)nc(N2C[C@H]3C[C@@H](c4ccccc4C(F)(F)F)C[C@H]3C2)n1 [BPN-14136] , state its recorded half-life.
## Result 17.8

* * *

assay.summary: Single dose pharmacokinetic study in cynomolgus monkey
Assay type: in vivo
experimental.conditions: male, cynomolgus monkey, plasma, po, 5 mg/kg, non-human primate, po 5 mg/kg, 12 hr; read-out: Plasma level, Mean
measurement.kind: concentration at 12 h (ng/mL)
Lab book: enter the figure in ng/mL, no units written.

## Task Any idea what concentration at 12 h was measured for Cc1cc(C(=O)O)nc(N2C[C@H]3C[C@@H](c4ccccc4C(F)(F)F)C[C@H]3C2)n1 ?
## Result 18600

* * *

assay.summary: Single dose pharmacokinetic study in beagle dog
Format: in vivo
experimental.conditions: male, beagle, plasma, po; Dog, 2.0 mg kg^−1 p.o., mean ± SD, n=3
measurement.kind: AUC(0-t) (ng·h/mL)
Please give a number only; it is taken to be in ng·h/mL.

## Task If you can, please state the reported AUC(0-t) value of Cc1cc(C(=O)O)nc(N2C[C@H]3C[C@@H](c4ccccc4C(F)(F)F)C[C@H]3C2)n1 [BPN-14136] .
## Result 35400

* * *

assay.summary: Single dose pharmacokinetic study in beagle dog
Format: in vivo
experimental.conditions: male, beagle, dog, plasma, iv, 0.5 mg/kg, male beagle dog, iv 0.5 mg/kg, 4 hr; read-out: Plasma level, Mean
measurement.kind: concentration at 4 h (ng/mL)
Dear colleague, please return just the value in ng/mL, with no unit written.

## Task Entry under review: Cc1cc(C(=O)O)nc(N2C[C@H]3C[C@@H](c4ccccc4C(F)(F)F)C[C@H]3C2)n1 [BPN-14136] . Reported concentration at 4 h?
## Result 464

* * *

assay.summary: Single dose pharmacokinetic study in cynomolgus monkey
Format: in vivo
experimental.conditions: male, cynomolgus monkey, plasma, po, 5 mg/kg, non-human primate, po 5 mg/kg, 12 hr; read-out: Plasma level, Individual animals
measurement.kind: concentration at 12 h
Returns: string containing the numeric result and its unit.

## Task Reported concentration at 12 h for Cc1cc(C(=O)O)nc(N2C[C@H]3C[C@@H](c4ccccc4C(F)(F)F)C[C@H]3C2)n1 [BPN-14136] : what is it?
## Result 16700 ng/mL

* * *

assay.summary: Single dose pharmacokinetic study in cynomolgus monkey
Assay type: in vivo
experimental.conditions: male, cynomolgus monkey, plasma, iv, 1 mg/kg, non-human primate, iv 1.0 mg/kg, 0.25 hr; read-out: Plasma level, Mean
measurement.kind: concentration at 0.25 hr (ng/mL)
Your answer is read as ng/mL, so omit the unit and give the number.

## Task So what's the measured concentration at 0.25 hr for this one? Cc1cc(C(=O)O)nc(N2C[C@H]3C[C@@H](c4ccccc4C(F)(F)F)C[C@H]3C2)n1
## Result 10700
